species on record: Oryctolagus cuniculus; assay: Antagonist activity pA2, was measured in the in vitro rabbit aorta strip assay; type: functional; settings: read-out: pA2 (converted)
Where a SMILES comes first, the peptide text is derived from it. [ ]: non-standard residue; d: D form. Phe(4-NO2) = N[C@@H](Cc1ccc([N+](=O)[O-])cc1)C(=O)O; Sar = CNCC(=O)O
metric name: Kb (nM)
All answers are understood in nM, so give the number only.

compound	Kb [nM]
CC[C@H](C)[C@H](NC(=O)[C@@H]1CCCN1C(=O)[C@H](Cc1c[nH]cn1)NC(=O)[C@@H](NC(=O)[C@H](Cc1ccc([N+](=O)[O-])cc1)NC(=O)[C@@H](NC(=O)[C@H](CCCN=C(N)N)NC(=O)CNC)C(C)C)[C@@H](C)CC)C(=O)O (H-[Sar]RV[Phe(4-NO2)]IHPI-OH)	79.4

// moving on: another record for Kb
Which Kb value is on record for CC[C@H](C)[C@H](NC(=O)[C@@H]1CCCN1C(=O)[C@H](Cc1c[nH]cn1)NC(=O)[C@@H](NC(=O)[C@H](Cc1ccccc1)NC(=O)[C@@H](NC(=O)[C@H](CCCN=C(N)N)NC(=O)CNC)C(C)C)[C@@H](C)CC)C(=O)O (H-[Sar]RVFIHPI-OH) ?
3.16
